These entries and their values trace back to ChEMBL document CHEMBL3507680.

- experiment.notes: Human HepG2 cell viability assay in 384 well format
- Format: toxicity, cell-based
- Design: dose 125 nL, time 70.5 hour; concentration not given beside the values
- stated.conditions: HepG2 cells, read-out: Inhibition
recorded.metric: cytotoxicity at 70.5 h (%)
# output: bare number, implied unit %

CC(=O)c1ccc(Cl)c(Cl)c1OCC(=O)NC(N)=O = 14.2
Cc1c(C(=O)NCC2CCN(Cc3ccco3)C2)[nH]c2ccccc12 (centres undefined) = -5.18
CN(Cc1nnc2n1CCC2)C(=O)c1ccc(=O)n(C)n1 = 4.72
Cc1ccc(CNC(=O)c2c[nH]nc2NC(=O)C2COCCO2)cc1 (centres undefined) = -0.405
COCCNC(=O)NCc1ccc(OC(C)C)c(F)c1 = -10.4

In the following, a different compound is considered.
Query: # get_value(readout='cytotoxicity at 70.5 h', item= COc1cccc2c1OCC(CNC(=O)CSc1nc(N)n[nH]1)C2 (centres undefined) )
Reply: -12

---

The entries below are paired with their reported cytotoxicity at 70.5 h.
- experiment.notes: Human HepG2 cell viability assay in 384 well format
- Type: toxicity, cell-based
- Parameters: dose 125 nL, time 70.5 hour; concentration not given beside the values
- stated.conditions: HepG2 cells, read-out: Inhibition
# output: bare number, implied unit %

Guide cases for cytotoxicity at 70.5 h, answers given:
CSc1ncccc1C(=O)N1C[C@H]2CC[C@@H]1CN(C(C)=O)C2 = -6.7
COCC1CC2(CCN(C(N)=O)CC2)CN1Cc1csc(C)n1 (stereo unspecified) = -3.74
COc1ccc2[nH]c(C(=O)NCC3(N)CCCC3)cc2c1 = -7.33

Query: # get_value(readout='cytotoxicity at 70.5 h', item= CCc1ncc(C(=O)N2CCN(Cc3ncccc3C)CC2)cn1 )
Reply: -14.7

Query: # get_value(readout='cytotoxicity at 70.5 h', item= CCOC1COC2(CCN(C(=O)c3cccc(C)n3)CC2)C1 (stereo unspecified) )
Reply: -0.53

Query: # get_value(readout='cytotoxicity at 70.5 h', item= O=C(NCC1CCCO1)c1cc(-c2ccc3c(c2)CCO3)n[nH]1 (stereo unspecified) )
Reply: 16.6

---

The entries below are paired with their reported cytotoxicity at 70.5 h.
- experiment.notes: Human HepG2 cell viability assay in 384 well format
- Assay type: toxicity, cell-based
- Design: dose 125 nL, time 70.5 hour; concentration not given beside the values
- stated.conditions: HepG2 cells, read-out: Inhibition
# output: bare number, implied unit %

Guide cases for cytotoxicity at 70.5 h, answers given:
COCc1noc(-c2ccc(N3CCCCC3COC)nc2)n1 (configuration not stated) = -11.8
CC(NC(=O)c1cc(C(C)C)[nH]n1)C(=O)Nc1ccccc1 (configuration not stated) = -6.22
COCc1ccccc1CNC(=O)CN1CCCC1c1noc(C)n1 (configuration not stated) = -2.27
CC(C)Nc1ccc2c(c1)C1(CCOCC1)C(=O)N2c1ccsc1 = -7.35
Cc1ccc(C(=O)NC2CCN(S(C)(=O)=O)CC2)c(=O)[nH]1 = -14.3

In the following, a different compound is considered.
Query: # get_value(readout='cytotoxicity at 70.5 h', item= O=C1CCSCC(C(=O)N2CCCC2)N1 (configuration not stated) )
Reply: -2.31

---

- experiment.notes: Human HepG2 cell viability assay in 384 well format
- Assay type: toxicity, cell-based
- Set-up: dose 125 nL, time 70.5 hour; concentration not given beside the values
- stated.conditions: HepG2 cells, read-out: Inhibition
The entries below are paired with their reported cytotoxicity at 70.5 h.
# output: bare number, implied unit %

Query: # get_value(readout='cytotoxicity at 70.5 h', item= C[C@@H]1CN(Cc2ccccn2)C[C@]12CCN(Cc1cccnc1)C2=O )
Reply: -13.1

Query: # get_value(readout='cytotoxicity at 70.5 h', item= O=C(CCn1ccnc1)N1CCCC(n2cncn2)C1 (stereo unspecified) )
Reply: 10.1

Query: # get_value(readout='cytotoxicity at 70.5 h', item= O=C(Cc1cccnc1)N1CCC2(CCN(CC3CCCCC3)C2)CC1 )
Reply: 7.82

Query: # get_value(readout='cytotoxicity at 70.5 h', item= O=C(NCCN1CCOCC1)N(CCCO)C1CCCc2ccccc21 (stereo unspecified) )
Reply: -2.32

Query: # get_value(readout='cytotoxicity at 70.5 h', item= Cc1ccc(CC(=O)NCC(O)c2ccc(Cl)cc2Cl)cn1 (stereo unspecified) )
Reply: 3.42

Query: # get_value(readout='cytotoxicity at 70.5 h', item= CCCc1cc(C(=O)N(C)Cc2cccc3cnccc23)n(C)n1 )
Reply: -2.24

Query: # get_value(readout='cytotoxicity at 70.5 h', item= O=C(NCc1ccccc1)NCC1CCN(Cc2ccsc2)CC1 )
Reply: -7.87

Query: # get_value(readout='cytotoxicity at 70.5 h', item= Cc1cc(CN2C[C@@H]3COC[C@]3(COCc3csc(C)n3)C2)no1 )
Reply: 2.9

Query: # get_value(readout='cytotoxicity at 70.5 h', item= CC1(C(=O)NC2CCCC2)CCCN(c2cnccn2)C1 (stereo unspecified) )
Reply: -6.96

Query: # get_value(readout='cytotoxicity at 70.5 h', item= Cc1cc2nc(C(=O)NCc3cccnc3N(C)C)cc(C)n2n1 )
Reply: 3.6

Query: # get_value(readout='cytotoxicity at 70.5 h', item= CCOc1ncccc1NC(=O)N1CCN(Cc2ccncc2)CC1 )
Reply: -4.21
